Target: Msn1 (UniProt P22148)
Sequence: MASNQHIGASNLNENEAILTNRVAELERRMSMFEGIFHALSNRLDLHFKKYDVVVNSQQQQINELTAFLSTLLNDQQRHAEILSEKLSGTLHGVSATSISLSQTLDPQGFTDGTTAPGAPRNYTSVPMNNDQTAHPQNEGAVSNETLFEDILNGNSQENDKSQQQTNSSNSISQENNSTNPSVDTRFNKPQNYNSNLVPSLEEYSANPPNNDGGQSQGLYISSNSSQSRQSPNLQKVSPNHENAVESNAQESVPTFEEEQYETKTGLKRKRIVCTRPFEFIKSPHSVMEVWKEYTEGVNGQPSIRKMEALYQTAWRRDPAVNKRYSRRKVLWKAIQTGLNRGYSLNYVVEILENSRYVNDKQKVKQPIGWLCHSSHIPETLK
Test: PBM E-score (8-mer binding enrichment) (E-score (-0.5 to 0.5)); higher = stronger / more preferred TF binding
Conditions: protein concentration: 200 nM; construct: GST-full length
The full ranking holds about 33,000 sequences; the median of “E-score (-0.5 to 0.5)” is about -0.013, and the highest 2% start at about 0.3. The sample as a whole holds a higher share of the highest values than the screen did.
Recorded Metric: PBM E-score

1. CACAATGG 0.0832
2. CGCCTGAC -0.0177
3. ATTTAGAG 0.0544
4. ATCCTAGA -0.0654
5. CGAGTGAC 0.0781
6. AAGCCTCT -0.17
7. ACACTTGG -0.0164
8. CTCCTACA -0.187
9. CAAAGGGC -0.0864
10. AAACTCTC -0.0224

* * *

Target: Msn1 (UniProt P22148)
Sequence: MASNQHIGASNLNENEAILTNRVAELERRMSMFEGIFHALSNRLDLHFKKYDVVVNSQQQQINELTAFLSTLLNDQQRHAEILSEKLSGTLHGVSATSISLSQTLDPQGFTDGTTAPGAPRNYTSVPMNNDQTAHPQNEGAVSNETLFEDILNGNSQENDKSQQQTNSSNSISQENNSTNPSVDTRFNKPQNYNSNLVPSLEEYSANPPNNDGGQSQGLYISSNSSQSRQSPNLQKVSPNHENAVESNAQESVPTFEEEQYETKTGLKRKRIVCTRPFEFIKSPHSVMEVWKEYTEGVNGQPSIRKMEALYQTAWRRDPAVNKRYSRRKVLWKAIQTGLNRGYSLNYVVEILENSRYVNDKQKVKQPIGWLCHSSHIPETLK
Experiment: PBM E-score (8-mer binding enrichment) (E-score (-0.5 to 0.5)); higher = stronger / more preferred TF binding
Conditions: protein concentration: 200 nM; construct: GST-full length
Whole data set: some 33,000 sequences, median “E-score (-0.5 to 0.5)” near -0.013, cut for the highest 2% near 0.3. Shown is part of a subset that was picked to be rich in the highest values.
We'd kindly ask you to apply these PBM E-score classes: A: < 0.04; B: ≥ 0.04 and < 0.09; C: ≥ 0.09

1. GAAATTCA C
2. CCGTGTCA C
3. GACGCGAA B
4. CAGTCCTA B
5. GCGTGTAC C
6. CCGTGTCG A
7. ACGGGAGG A
8. CCAAAATC C
9. AAAATTCG C
10. GTCTTGGA B
11. AATGGTCG A
12. ACCGATTC A
13. AGTCAGGC B
14. CAACTTTC A
15. AAAATTGC B
16. AGGTCCTG B
